Target: DNA-directed RNA polymerase I subunit RPA1 (Homo sapiens)
Assay: Inhibition of RNA polymerase 1 in human A-375 assessed as RPA194 degradation measured after 3 hrs by Hoechst 33342 staining based assay
pIC50: −log10 of the molar value.
RECORDED ENDPOINT: pIC50

> print(dat)
                                   compound  experimental.result
1  O=C(NCCN1CCCC1)c1cccn2c(=O)c3ccc4ccccc4c3nc12                 6.68

1 = O=C(NCC1CCCN1)c1cccn2c(=O)c3cc4ccccc4cc3nc12 (stereo not drawn)
2 = O=C(NCCN1CCCC1)c1cccn2c1nc1cc3ccccc3nc12
3 = CC(C)N1CCCCC1CNC(=O)c1cccn2c(=O)c3cc4ccccc4cc3nc12 (stereo not drawn)
4 = O=C(NCCN1CCCC1)c1cccn2c1nc1cc3ccccc3cc12
With regard to pIC50, arrange the entries in ascending order, please. Answer with the labels in sequence, matching the requested order.
3, 2, 4, 1

A = CCN1CCCCC1CNC(=O)c1cccn2c(=O)c3cc4ccccc4cc3nc12 (stereo not drawn)
B = O=C(NCC1CCCCN1)c1cccn2c(=O)c3cc4ccccc4cc3nc12 (stereo not drawn)
Which of the two items, A and B , has the greater recorded pIC50? // output: label of the selected item
B
(B: 6.23, A: 6.00)

I = O=C(NCCN1CCCCC1)c1cccn2c(=O)c3ccc4ccccc4c3nc12
II = O=C(NCCN1CCC(F)C1)c1cccn2c(=O)c3cc4ccccc4cc3nc12 (stereo not drawn)
III = O=C(NCCN1CCCC1)c1cccn2c(=O)c3cc4c(cc3nc12)CCCC4
IV = CN(C)CCNC(=O)c1cccn2c(=O)c3ccc4ccccc4c3nc12
Sort the 4 compounds by pIC50; largest first, smallest last. Hello, could you send the labels back in the order asked? Thank you.
IV, I, III, II
(IV: 6.80, I: 6.19, III: 5.86, II: 5.24)

* * *

Assay: Oral bioavailability in CD1 mouse at 30 mg/kg
Assay type: ADME, organism-based
Conditions: in vivo
RECORDED ENDPOINT: bioavailability (%)
Unit % implied. Number only.

Can you share its bioavailability? I mean this compound: `O=C(NCCN1CCCC1)c1cccn2c(=O)c3ccc4ccccc4c3nc12`
13

* * *

Target: Cytochrome P450 1A2 (Homo sapiens)
Sequence (P05177 whole entry): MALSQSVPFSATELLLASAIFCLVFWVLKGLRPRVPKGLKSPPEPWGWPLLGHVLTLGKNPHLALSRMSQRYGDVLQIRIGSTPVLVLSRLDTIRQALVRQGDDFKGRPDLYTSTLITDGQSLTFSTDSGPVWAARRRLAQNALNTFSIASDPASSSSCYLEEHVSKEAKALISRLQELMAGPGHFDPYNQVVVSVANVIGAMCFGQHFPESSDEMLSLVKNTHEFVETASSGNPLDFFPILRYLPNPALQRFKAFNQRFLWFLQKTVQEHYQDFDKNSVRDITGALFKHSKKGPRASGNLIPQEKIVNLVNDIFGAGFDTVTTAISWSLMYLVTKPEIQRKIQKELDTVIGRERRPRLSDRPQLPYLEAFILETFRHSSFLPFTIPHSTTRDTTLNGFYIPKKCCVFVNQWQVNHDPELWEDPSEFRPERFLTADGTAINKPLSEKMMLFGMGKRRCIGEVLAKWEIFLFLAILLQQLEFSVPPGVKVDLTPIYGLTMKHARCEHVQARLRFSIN
Assay: Inhibition of recombinant human hepatic CYP1A2 expressed in baculovirus insect cell expression system in presence of CEC substrate measured by fluorescence plate reader assay
RECORDED ENDPOINT: IC50 (nM)

Consider the reported IC50 for these compounds:
> print(dat)
                                 smiles.str  recorded.endpoint  experimental.result
1  CNCCNC(=O)c1cccn2c(=O)c3ccc4ccccc4c3nc12               IC50                  300
2  O=C(NC1CNC1)c1cccn2c(=O)c3ccc4ccccc4c3nc12               IC50                  200
3  O=C(NCCN1CC[C@@H](F)C1)c1cccn2c(=O)c3ccc4ccccc4c3nc12               IC50                 2100

I = O=C(NCCO)c1cccn2c(=O)c3ccc4ccccc4c3nc12
II = O=C(NCCN1CC[C@H](F)C1)c1cccn2c(=O)c3ccc4ccccc4c3nc12
Of I and II , which one carries the higher reported IC50? // caller expects the label of the chosen entry
II
(II: 4500 nM, I: 100 nM)

* * *

Target: UniProt Q12809
Sequence (Q12809 whole entry): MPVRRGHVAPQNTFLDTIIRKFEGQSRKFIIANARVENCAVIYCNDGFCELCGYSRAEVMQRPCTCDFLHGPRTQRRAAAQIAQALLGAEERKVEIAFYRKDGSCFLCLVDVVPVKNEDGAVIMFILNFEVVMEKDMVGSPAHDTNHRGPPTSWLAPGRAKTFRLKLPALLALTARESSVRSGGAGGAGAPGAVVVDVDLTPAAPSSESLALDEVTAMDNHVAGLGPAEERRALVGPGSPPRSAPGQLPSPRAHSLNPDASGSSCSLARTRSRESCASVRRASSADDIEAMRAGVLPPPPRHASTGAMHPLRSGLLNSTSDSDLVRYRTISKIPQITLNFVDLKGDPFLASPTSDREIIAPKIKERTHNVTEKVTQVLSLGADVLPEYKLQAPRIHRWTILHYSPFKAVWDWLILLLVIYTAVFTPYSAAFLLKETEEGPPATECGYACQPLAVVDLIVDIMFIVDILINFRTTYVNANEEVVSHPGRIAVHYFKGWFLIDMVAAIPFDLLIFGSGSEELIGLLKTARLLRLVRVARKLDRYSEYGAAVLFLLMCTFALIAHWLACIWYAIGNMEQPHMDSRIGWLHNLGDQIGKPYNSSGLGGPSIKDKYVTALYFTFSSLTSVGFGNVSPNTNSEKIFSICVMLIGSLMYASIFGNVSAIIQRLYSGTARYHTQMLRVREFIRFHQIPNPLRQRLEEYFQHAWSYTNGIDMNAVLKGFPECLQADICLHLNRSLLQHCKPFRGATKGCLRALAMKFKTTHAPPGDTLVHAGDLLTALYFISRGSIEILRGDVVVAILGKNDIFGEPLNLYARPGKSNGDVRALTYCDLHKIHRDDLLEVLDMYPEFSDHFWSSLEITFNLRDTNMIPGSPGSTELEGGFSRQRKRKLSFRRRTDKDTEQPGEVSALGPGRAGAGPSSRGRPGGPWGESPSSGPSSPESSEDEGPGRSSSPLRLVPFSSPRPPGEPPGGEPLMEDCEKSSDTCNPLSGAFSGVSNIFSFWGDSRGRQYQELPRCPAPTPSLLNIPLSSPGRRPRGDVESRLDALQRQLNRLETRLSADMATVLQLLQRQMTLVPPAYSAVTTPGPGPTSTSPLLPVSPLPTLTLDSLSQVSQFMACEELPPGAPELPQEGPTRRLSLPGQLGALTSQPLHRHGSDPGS
Experiment: Inhibition on hERG expressed in HEK293 cells by Qpatch method
RECORDED ENDPOINT: IC50 (µM)
Output spec: scalar in µM, unitless text.

> print(dat)
                                 smiles.str  experimental.result
1  O=C(NCCN1CCCCC1)c1cccn2c(=O)c3ccc4ccccc4c3nc12                 3.72

Requested field: IC50. Item: `O=C(NCCN1CC[C@@H](F)C1)c1cccn2c(=O)c3ccc4ccccc4c3nc12`
8.26

Param item: `CN1CCC(NC(=O)c2cccn3c(=O)c4ccc5ccccc5c4nc23)CC1`
7.39

And what about the molecule `O=C(NC1CNC1)c1cccn2c(=O)c3ccc4ccccc4c3nc12` ?
3.97

* * *

Assay: AUC (0 to infinity) in CD1 mouse at 30 mg/kg, po
Type: ADME, organism-based
Design: route oral, time infinity, dose 30 mg/kg
Details: in vivo
RECORDED ENDPOINT: AUC(0-inf) (ng·h/mL)
Respond with the bare value in ng·h/mL.

Which value of AUC(0-inf) has been reported for `O=C(NCCN1CCCC1)c1cccn2c(=O)c3ccc4ccccc4c3nc12` in the records?
122

* * *

Assay: Volume of distribution at steady state in CD1 mouse at 1 mg/kg, iv
Type: ADME, organism-based
Details: in vivo, read-out: Vdss
RECORDED ENDPOINT: Vd (L/kg)
Give just the number in L/kg; leave the unit off.

Entry `O=C(NCCN1CCCC1)c1cccn2c(=O)c3ccc4ccccc4c3nc12` : reported Vd = ?
33.2

* * *

Test: AUC (0 to infinity) in CD1 mouse at 30 mg/kg, ip
Conditions: in vivo
RECORDED ENDPOINT: AUC(0-inf) (ng·h/mL)
Kindly answer with a numeric value in ng·h/mL, unit omitted.

Tell me the measured AUC(0-inf) of `O=C(NCCN1CCCC1)c1cccn2c(=O)c3ccc4ccccc4c3nc12` , please.
518

* * *

Target: DNA-directed RNA polymerase I subunit RPA1 (Homo sapiens, UniProt O95602)
Sequence (O95602 whole entry): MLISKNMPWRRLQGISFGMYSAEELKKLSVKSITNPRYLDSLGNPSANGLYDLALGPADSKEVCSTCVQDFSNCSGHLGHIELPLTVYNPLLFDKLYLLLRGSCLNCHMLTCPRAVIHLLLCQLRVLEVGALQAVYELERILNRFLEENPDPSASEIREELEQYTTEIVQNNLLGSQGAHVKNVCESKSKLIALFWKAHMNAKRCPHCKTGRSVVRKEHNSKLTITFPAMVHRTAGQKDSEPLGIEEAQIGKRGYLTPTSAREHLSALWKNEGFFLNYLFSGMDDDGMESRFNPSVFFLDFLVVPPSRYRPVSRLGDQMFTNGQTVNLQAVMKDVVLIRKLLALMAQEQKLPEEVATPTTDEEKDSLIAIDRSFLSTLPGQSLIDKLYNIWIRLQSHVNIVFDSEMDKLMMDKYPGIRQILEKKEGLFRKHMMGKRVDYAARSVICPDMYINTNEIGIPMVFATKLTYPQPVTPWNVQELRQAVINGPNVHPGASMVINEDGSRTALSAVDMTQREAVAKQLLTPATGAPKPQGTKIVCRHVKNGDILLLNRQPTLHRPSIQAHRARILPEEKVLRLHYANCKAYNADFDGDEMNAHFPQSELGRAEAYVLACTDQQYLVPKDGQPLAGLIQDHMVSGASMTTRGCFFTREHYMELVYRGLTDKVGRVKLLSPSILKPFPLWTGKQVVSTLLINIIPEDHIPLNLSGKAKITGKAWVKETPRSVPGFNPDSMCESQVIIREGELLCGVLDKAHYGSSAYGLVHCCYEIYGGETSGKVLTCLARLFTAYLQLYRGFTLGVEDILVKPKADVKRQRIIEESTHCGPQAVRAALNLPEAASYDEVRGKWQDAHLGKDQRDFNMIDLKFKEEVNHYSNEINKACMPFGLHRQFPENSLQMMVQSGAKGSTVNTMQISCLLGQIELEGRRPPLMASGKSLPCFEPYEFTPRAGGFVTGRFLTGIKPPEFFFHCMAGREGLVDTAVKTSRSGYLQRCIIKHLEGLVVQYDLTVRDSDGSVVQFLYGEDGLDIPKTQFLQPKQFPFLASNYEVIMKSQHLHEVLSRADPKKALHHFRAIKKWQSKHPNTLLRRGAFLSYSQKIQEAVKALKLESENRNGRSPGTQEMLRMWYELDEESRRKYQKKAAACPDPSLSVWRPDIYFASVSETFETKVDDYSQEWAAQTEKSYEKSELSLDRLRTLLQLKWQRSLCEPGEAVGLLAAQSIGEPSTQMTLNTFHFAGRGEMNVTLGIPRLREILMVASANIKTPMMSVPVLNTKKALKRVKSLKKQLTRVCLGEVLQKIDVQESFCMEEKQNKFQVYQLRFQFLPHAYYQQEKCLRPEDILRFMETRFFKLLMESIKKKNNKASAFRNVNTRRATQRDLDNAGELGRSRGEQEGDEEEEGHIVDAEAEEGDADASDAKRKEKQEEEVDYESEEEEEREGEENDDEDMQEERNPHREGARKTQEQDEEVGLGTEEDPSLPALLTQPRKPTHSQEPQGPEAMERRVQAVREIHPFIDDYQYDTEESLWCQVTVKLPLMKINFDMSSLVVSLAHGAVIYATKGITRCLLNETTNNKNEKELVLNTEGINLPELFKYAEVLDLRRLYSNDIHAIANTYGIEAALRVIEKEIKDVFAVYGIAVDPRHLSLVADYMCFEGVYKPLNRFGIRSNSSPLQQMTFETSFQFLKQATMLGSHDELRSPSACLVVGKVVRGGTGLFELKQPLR
Assay: Inhibition of RNA polymerase 1 in human A-375 assessed as RPA194 degradation measured after 3 hrs by Hoechst 33342 staining based assay
RECORDED ENDPOINT: IC50 (nM)

Solved cases below.
> print(dat)
                                   compound  experimental.result
1  O=C(NCCN1CCC(F)CC1)c1cccn2c(=O)c3cc4ccccc4cc3nc12                  780
2  CCN(CC)CCNC(=O)c1cccn2c(=O)c3ccc4ccccc4c3nc12                  600
3  COc1cc2nc3c(C(=O)NCCN4CCCC4)cccn3c(=O)c2cc1OC                 6860
4  O=C(NCCN1CCSCC1)c1cccn2c(=O)c3cc4ccccc4cc3nc12                10000
5  O=C(NCCN1CC[C@@H](F)C1)c1cccn2c(=O)c3ccc4ccccc4c3nc12                 1900

a = O=C(NCCN1CCC(O)(O)CC1)c1cccn2c(=O)c3cc4ccccc4cc3nc12
b = CN1CCCC1CNC(=O)c1cccn2c(=O)c3cc4ccccc4cc3nc12 (configuration not stated)
c = CC(NC(=O)c1cccn2c(=O)c3cc4ccccc4cc3nc12)C1CCCCN1 (configuration not stated)
d = O=C(NCCN1CCCC1)c1cccn2c(=O)c3cc4c(cc3nc12)OC(F)(F)O4
Task field, ranking: reported IC50, descending order. Returns: the labels listed in the requested order.
b, c, a, d

a = O=C(NCC1CCCC(CO)N1)c1cccn2c(=O)c3cc4ccccc4cc3nc12 (configuration not stated)
b = Cc1cc2nc3c(C(=O)NCCN4CCCC4)cccn3c(=O)c2cc1C
In the pair a and b , the larger recorded IC50 belongs to which? Write down the label of the entry you select.
b
(b: 1160 nM, a: 650 nM)

* * *

Target: DNA-directed RNA polymerase I subunit RPA1 (Homo sapiens)
Experiment: Inhibition of RNA polymerase 1 in human A-375 assessed as RPA194 degradation measured after 3 hrs by Hoechst 33342 staining based assay
pIC50: −log10 of the molar value.
Entries and their measured pIC50 follow.

// lookup pIC50 for `O=C(NCCN1CCC(F)(F)C1)c1cccn2c(=O)c3cc4ccccc4cc3nc12`
< 5.00

# repeat for `O=C(NCCCN1CCCC1)c1cccn2c(=O)c3ccc4ccccc4c3nc12`
< 5.00

Thanks! And `NCCNC(=O)c1cccn2c(=O)c3ccc4ccccc4c3nc12` ?
< 5.00

Another compound to check: `O=C(NCCO)c1cccn2c(=O)c3ccc4ccccc4c3nc12`
5.02

Field entry: `CN1CCN(CCNC(=O)c2cccn3c(=O)c4ccc5ccccc5c4nc23)CC1`
< 5.00

Proceed to `CN(C)CCCNC(=O)c1cccn2c(=O)c3ccc4ccccc4c3nc12`
< 5.00

Do the same for `N#CC1CCN(CCNC(=O)c2cccn3c(=O)c4cc5ccccc5cc4nc23)CC1` please
6.13

// next record `O=C(NCCN1CC[C@H](F)C1)c1cccn2c(=O)c3ccc4ccccc4c3nc12`
< 5.00

Do the same for `CN1CCC(NC(=O)c2cccn3c(=O)c4ccc5ccccc5c4nc23)CC1` please
< 5.00
